- TEST_DESCRIPTION: PET hydrolysis, aromatic products released after 48 h (umol product/mg enzyme); higher = more PET depolymerization activity
- CONDITION_DETAILS: substrate: cryPow; 40 °C; pH 6.5
Overview of recorded PET hydrolysis for various sequences
ATTRIBUTE_MEASURED: PET hydrolysis

{"columns": ["RECORD_SEQUENCE", "ATTRIBUTE_MEASURED", "RESULT"],
 "data": [
  ["QAPDRTALARTGPYQVAYYTQLPPAAEFSAATLFFPANKAQAFGGVVIAPGYTEKQVNVQWWGYHLASHGYAVLVLDTNDPEEYPDRRADALMAGVAVLRGENTRMGSTLRGKILEGRIALMGHSMGGGGTLLAANGHSDQLKTIIPFTPWLPGADFSAVSVPTLVLAGEIDRIAAVKDHAWPHYESLTGAVPRMYLEVKGGNHYIANSMTDREDRNPNIDVHDLVGSMVVAWLKTFLDDDESYRELVFGDLPEADRVRISRLEFVE [TEP006]", "PET hydrolysis", "< 3"],
  ["DPPTHAKGVKPGPSELAAPSASDLAADGPHAVTTTAISGSVTPGFGAATIYAPASGSGYGGVAISPGYMSTQSAVSWLGPRLASHGFVVITFDTTTIWDNPDSRGVQLLAALDYLTGSSPARGQVDASRLAVMGHSMGGGGSLAAAKSRPSIDAAIPLTPWHTDKTWPEVSTPTLIVGAENDGIAPVASHAEPFYESLATSTDRAYLELNAATHSAPNSENAQISTYSLAWLKRFVDGDTSVDPILCPGPAASSTVEEYRSSCPF [DP019]", "PET hydrolysis", "< 3"]
]}

Recorded values, source the supplement of paper PMC12455559.
